Source of measurements: the supplement of paper PMC7877785

Experiment: self-splicing fitness, log relative to wild type (ln ratio); higher = more splicing; Tetrahymena group I intron in knt gene, E. coli kanamycin selection, DiMSum; sequences stand for … in CUCUCU…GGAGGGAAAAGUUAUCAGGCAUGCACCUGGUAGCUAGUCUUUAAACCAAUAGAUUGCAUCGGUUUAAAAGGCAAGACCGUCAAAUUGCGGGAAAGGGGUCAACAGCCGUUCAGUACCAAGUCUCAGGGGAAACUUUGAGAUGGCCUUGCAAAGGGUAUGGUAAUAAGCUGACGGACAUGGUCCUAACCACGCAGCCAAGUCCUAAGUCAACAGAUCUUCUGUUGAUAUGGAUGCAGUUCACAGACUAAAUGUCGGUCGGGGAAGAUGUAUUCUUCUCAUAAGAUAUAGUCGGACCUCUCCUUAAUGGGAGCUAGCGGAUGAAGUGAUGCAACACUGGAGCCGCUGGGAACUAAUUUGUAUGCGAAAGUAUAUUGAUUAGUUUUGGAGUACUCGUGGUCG;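 also: selection with 25 µg/mL kanamycin versus none on LB agar overnight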
Details: 30 °C
experimental-readout: self-splicing fitness (ln)
Could you respond with only the numeric value?

For record `UAAGAGCAAUAUUACGACUG` the listed self-splicing fitness (ln) is -2

Looking up `CCUGAGCAAUAUUACGCGCG` , I found its self-splicing fitness (ln) recorded as -3.05

Lab note: measured self-splicing fitness (ln) of `ACAGAGCAAUAUUACGGACA` was -2.99

###

Assay: self-splicing fitness, log relative to wild type (ln ratio); higher = more splicing; Tetrahymena group I intron in knt gene, E. coli kanamycin selection, DiMSum; sequences stand for … in CUCUCU…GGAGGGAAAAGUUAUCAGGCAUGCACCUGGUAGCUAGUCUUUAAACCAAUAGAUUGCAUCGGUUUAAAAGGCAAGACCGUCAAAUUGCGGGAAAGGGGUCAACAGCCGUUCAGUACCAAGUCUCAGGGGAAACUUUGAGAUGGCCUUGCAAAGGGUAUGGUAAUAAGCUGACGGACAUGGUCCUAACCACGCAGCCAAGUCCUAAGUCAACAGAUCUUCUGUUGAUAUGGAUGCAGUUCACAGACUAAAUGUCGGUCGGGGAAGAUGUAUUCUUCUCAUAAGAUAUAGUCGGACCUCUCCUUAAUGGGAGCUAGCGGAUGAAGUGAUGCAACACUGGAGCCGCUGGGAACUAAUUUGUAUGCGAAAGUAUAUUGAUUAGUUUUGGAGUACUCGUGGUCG
Conditions: 37 °C
Items are presented alongside their recorded self-splicing fitness (ln).
Write no unit; give the number alone.

Per the record, `UCAGAGCAAUAUUACGCAAG` has self-splicing fitness (ln) of -1.48

New cases:
The sequence listed as `GAAUAGCAAUAUUACGCGGG` shows self-splicing fitness (ln) equal to -0.0263

Entry under test: `CUAAAGCAAUAUUACGUGAU` . Its self-splicing fitness (ln) was -1.14

Note to self: self-splicing fitness (ln) recorded for `CCAGAGCAAUAUUACGCGCU` was -1.89

The sequence listed as `UGCGAGCAAUAUUACGUUCA` has a reported self-splicing fitness (ln) of -0.32

self-splicing fitness (ln) for `CCAAAGCAAUAUUACGGCGA` is -3.01

Value of self-splicing fitness (ln) reported for the sequence `AUUGAGCAAUAUUACGAUAA` is -2.14

Briefly, self-splicing fitness (ln) measured for `CGAUAGCAAUAUUACGAUUC` : -0.777

###

Experiment: self-splicing fitness, log relative to wild type (ln ratio); higher = more splicing; Tetrahymena group I intron in knt gene, E. coli kanamycin selection, DiMSum; sequences stand for … in CUCUCU…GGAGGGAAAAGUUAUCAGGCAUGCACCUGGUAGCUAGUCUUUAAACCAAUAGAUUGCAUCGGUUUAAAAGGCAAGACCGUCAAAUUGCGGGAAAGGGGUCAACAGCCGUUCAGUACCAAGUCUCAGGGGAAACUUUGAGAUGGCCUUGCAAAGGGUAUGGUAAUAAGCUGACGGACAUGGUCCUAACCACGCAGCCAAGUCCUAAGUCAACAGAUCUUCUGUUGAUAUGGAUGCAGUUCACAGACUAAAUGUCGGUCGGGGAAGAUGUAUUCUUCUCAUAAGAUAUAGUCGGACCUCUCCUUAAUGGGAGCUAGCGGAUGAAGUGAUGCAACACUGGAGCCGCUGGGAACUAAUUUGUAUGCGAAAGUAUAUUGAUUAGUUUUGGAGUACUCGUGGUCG
Conditions: 30 °C
Outcome: condition met for self-splicing fitness (ln) of at least -3; condition not met for anything lower.

Prompt: Threshold query (self-splicing fitness (ln) >= -3) on `AGCGAGCAAUAUUACGAGUU`
Completion: condition met

Continuing:
Prompt: Say whether `CCCAAGCAAUAUUACGGAUA` shows self-splicing fitness (ln) of -3 or more.
Completion: condition met

Prompt: Please tell me: is the sequence `UGUGAGCAAUAUUACGAGUG` at or over -3 in terms of self-splicing fitness (ln)?
Completion: condition met

Prompt: Form field: self-splicing fitness (ln) at least -3? Entry: `UAUUAGCAAUAUUACGUUCG`
Completion: condition met

###

Assay: self-splicing fitness, log relative to wild type (ln ratio); higher = more splicing; Tetrahymena group I intron in knt gene, E. coli kanamycin selection, DiMSum; sequences stand for … in CUCUCU…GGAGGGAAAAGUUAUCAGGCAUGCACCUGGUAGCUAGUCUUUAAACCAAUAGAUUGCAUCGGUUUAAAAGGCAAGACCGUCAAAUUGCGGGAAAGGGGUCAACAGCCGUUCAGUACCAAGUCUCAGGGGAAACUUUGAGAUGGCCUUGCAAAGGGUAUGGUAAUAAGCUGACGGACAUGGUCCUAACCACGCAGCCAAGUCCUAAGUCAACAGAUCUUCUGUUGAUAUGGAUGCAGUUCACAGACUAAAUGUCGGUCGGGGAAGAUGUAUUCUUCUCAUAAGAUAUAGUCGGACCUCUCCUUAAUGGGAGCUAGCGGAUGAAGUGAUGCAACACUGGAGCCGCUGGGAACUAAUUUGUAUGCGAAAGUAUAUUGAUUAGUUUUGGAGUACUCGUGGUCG
Conditions: 30 °C
Classify as follows. Reported self-splicing fitness (ln) greater than or equal to -3: T. Reported self-splicing fitness (ln) below: F.

As a guide, the following entries are already answered.
Prompt: Assess whether reported self-splicing fitness (ln) for `GCCAAGCAAUAUUACGCGCC` sits at -3 or higher.
Completion: F

Prompt: Hi team, for `GCUUAGCAAUAUUACGCAGA` , is the recorded self-splicing fitness (ln) at or above -3?
Completion: T

Prompt: Hello, I need to know if `UGUAAGCAAUAUUACGGCGU` has measured self-splicing fitness (ln) not below -3. Thanks!
Completion: T

Prompt: Identify whether the reported self-splicing fitness (ln) of the following sequence is -3 or greater: `GAUAAGCAAUAUUACGCUGU`
Completion: F

Prompt: Record `AGUUAGCAAUAUUACGGUGC` ; criterion: self-splicing fitness (ln) no lower than -3. Met?
Completion: F

Now examine the next entry.
Prompt: For this sequence, is measured self-splicing fitness (ln) -3 or higher? `UUUUAGCAAUAUUACGAUUU`
Completion: T

###

Assay: self-splicing fitness, log relative to wild type (ln ratio); higher = more splicing; Tetrahymena group I intron in knt gene, E. coli kanamycin selection, DiMSum; sequences stand for … in CUCUCU…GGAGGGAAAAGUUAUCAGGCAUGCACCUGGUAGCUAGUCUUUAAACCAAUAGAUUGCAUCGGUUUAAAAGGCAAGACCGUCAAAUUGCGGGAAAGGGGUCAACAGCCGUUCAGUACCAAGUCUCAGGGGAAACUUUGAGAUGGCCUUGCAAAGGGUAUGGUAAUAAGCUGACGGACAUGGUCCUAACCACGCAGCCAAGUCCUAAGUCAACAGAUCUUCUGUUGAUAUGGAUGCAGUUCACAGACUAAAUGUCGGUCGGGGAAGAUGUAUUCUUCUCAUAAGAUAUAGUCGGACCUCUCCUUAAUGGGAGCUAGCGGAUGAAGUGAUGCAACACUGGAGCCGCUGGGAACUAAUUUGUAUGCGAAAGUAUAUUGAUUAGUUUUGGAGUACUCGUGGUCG
Details: 30 °C
Overview of reported self-splicing fitness (ln) across a group of sequences:
# output: bare number, no unit

Value of self-splicing fitness (ln) reported for the sequence `AGAUAGCAAUAUUACGCGGA` is -2.98

Lab book: self-splicing fitness (ln) of `CGCAAGCAAUAUUACGAACC` noted as -2.01

The recorded self-splicing fitness (ln) for entry `UAACAGCAAUAUUACGAGGA` equals -3.13

Record summary for `CCUAAGCAAUAUUACGACCA` : reported self-splicing fitness (ln) = -3.19

Attention now shifts to the item below.
Lookup result for `AUGCAGCAAUAUUACGAUUG` ; measured self-splicing fitness (ln): -2.67

###

Assay: self-splicing fitness, log relative to wild type (ln ratio); higher = more splicing; Tetrahymena group I intron in knt gene, E. coli kanamycin selection, DiMSum; sequences stand for … in CUCUCU…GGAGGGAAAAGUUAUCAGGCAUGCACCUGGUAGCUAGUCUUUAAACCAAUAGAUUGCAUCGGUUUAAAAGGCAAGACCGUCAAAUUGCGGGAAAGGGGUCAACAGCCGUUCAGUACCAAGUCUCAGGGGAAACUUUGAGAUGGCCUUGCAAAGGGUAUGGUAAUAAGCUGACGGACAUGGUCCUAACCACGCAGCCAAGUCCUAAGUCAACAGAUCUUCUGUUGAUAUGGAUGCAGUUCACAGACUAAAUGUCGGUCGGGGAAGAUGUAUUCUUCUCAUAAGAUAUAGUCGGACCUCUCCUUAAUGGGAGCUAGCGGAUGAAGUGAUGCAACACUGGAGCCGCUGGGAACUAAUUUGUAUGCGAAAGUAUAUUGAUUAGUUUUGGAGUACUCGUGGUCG
Settings: 37 °C
Consider the following sequences and their measured self-splicing fitness (ln) readings.
No unit in the answer, only the number.

Reported self-splicing fitness (ln) for `UCUCAGCAAUAUUACGCAUU` was -1.55

Value of measured self-splicing fitness (ln) for the entry `CUAAAGCAAUAUUACGGGUC` : -3.33

Looking up `AUGCAGCAAUAUUACGAGCA` , I found its self-splicing fitness (ln) recorded as -0.627

Next:
Memo: `UUGCAGCAAUAUUACGAUAA` , reported self-splicing fitness (ln): 0.0102

Sample `UGUUAGCAAUAUUACGUCCA` ; self-splicing fitness (ln) observed: 0.305

So for `GCGCAGCAAUAUUACGAACU` , the logged self-splicing fitness (ln) turned out to be 0.476

Reported self-splicing fitness (ln) of `CGCUAGCAAUAUUACGUCUA` : -1.59

// self-splicing fitness (ln) value for `UGAAAGCAAUAUUACGUGAA` : -1.5

get_value(item= `GACUAGCAAUAUUACGGUCA` , readout=self-splicing fitness (ln)) returns -1.36

Lab note: `AACUAGCAAUAUUACGGCCC` gave self-splicing fitness (ln) of -0.325

Form field self-splicing fitness (ln), entry `GCGGAGCAAUAUUACGUUUU` : -2.02

Entry `CGAGAGCAAUAUUACGAACG` , self-splicing fitness (ln) reported as -1.04

Per the records, this sequence ( `ACGAAGCAAUAUUACGAGCU` ) has self-splicing fitness (ln) equal to -0.76

Noted for `CCCUAGCAAUAUUACGGCGU` : its self-splicing fitness (ln) reads -2.35

Recorded self-splicing fitness (ln) (sequence `AGUUAGCAAUAUUACGACAG` ): -0.495

The reported value for `AAUUAGCAAUAUUACGGCUU` in terms of self-splicing fitness (ln) is 0.169

Field self-splicing fitness (ln) (entry `AAACAGCAAUAUUACGGUAG` ) reads -2.02

// field: self-splicing fitness (ln); key: `GAGGAGCAAUAUUACGAAGC` ; value = -2.22

Given item `UGUGAGCAAUAUUACGUCAG` , the value recorded as its self-splicing fitness (ln) is -1.02

Measured self-splicing fitness (ln) of `GAUGAGCAAUAUUACGCCGA` : -1.44

The recorded self-splicing fitness (ln) for entry `AGUGAGCAAUAUUACGGGUU` equals -2.35

Record summary for `GGCUAGCAAUAUUACGCGCC` : reported self-splicing fitness (ln) = -2.17
